Each entry below lists one item and its recorded growth value.
- Test system: SN12C renal
- Test Protocol: NCI-60 one-dose screen, 48 h (100 = growth as untreated, 0 = no growth, -100 = all killed)
- Condition Details: 10 µM unless noted
This is part of a sample that, as a whole, favours compounds with a hit. Of some 83,000 tested, about 20% had one in any assay.
Numbers only; they are read as %.

Check out these entries, answers already filled in.
compound=CC(=O)c1ccc(NC(=O)CSc2nnc(-c3cc(-c4ccc(Cl)cc4)nc4ccccc34)o2)cc1 target_or_test_system="SN12C renal" readout_label=growth measured_value=37.9
compound=CCCn1c2cc(OCc3cn(-c4ccc(Br)cc4)nn3)ccc2c2ccnc(C)c21 target_or_test_system="SN12C renal" readout_label=growth measured_value=17.5
compound="O=c1c2ccccc2n(CC(O)CN2CCCC2)c2c(Br)cccc12 (stereo not given)" target_or_test_system="SN12C renal" readout_label=growth measured_value=109
compound=C=C(C)[C@@H]1CC[C@]2(C(=O)OCCOCCOCC[P+](c3ccccc3)(c3ccccc3)c3ccccc3)CC[C@]3(C)[C@H](CC[C@@H]4[C@@]5(C)CC[C@H](OC(=O)C(Cl)Cl)C(C)(C)[C@@H]5CC[C@]43C)[C@@H]12 target_or_test_system="SN12C renal" readout_label=growth measured_value=-46.9
compound=Cc1cc(C)nc(NS(=O)(=O)c2ccc(Nc3ccc4c5c(n(CCCN(C)C)c(=O)c4c3)-c3ccccc3C5=O)cc2)n1 target_or_test_system="SN12C renal" readout_label=growth measured_value=85

Task item: Indicate its recorded growth; the compound in question is `C[C@]12CC[C@@H]3c4ccc(O)cc4CC[C@H]3[C@@H]1C[C@H](O)C2`
Reply: 71.6

Task item: Indicate its recorded growth; the compound in question is `C=C(C)[C@@H]1CC[C@]2(C(=O)OCCOCCOCC[P+](c3ccccc3)(c3ccccc3)c3ccccc3)CC[C@]3(C)[C@H](CC[C@@H]4[C@@]5(C)CC[C@H](OC(C)=O)C(C)(C)[C@@H]5CC[C@]43C)[C@@H]12`
Reply: -89.9

Task item: Indicate its recorded growth; the compound in question is Cc1ccc(C(=O)/C(=C/c2ccc([N+](=O)[O-])cc2)S(=O)Cc2ccccc2)cc1 (stereo not given)
Reply: -41.1

Task item: Indicate its recorded growth; the compound in question is `Cc1cccc2nc3c(n12)C(=O)C(=O)c1ccccc1-3`
Reply: 37.1

Task item: Indicate its recorded growth; the compound in question is `COc1ccc(-c2cc(-c3nnc(SCC(=O)Nc4ccc(/C(C)=N\O)cc4)n3-c3ccccc3)c3cc(OC)ccc3n2)cc1`
Reply: 86.8

Task item: Indicate its recorded growth; the compound in question is COC1=CC2C=C(C3N(c4ccccc4)NC(=O)[C@@H]4CCCN34)C(=O)NC2C=C1 (stereo not given in full)
Reply: 107

Task item: Indicate its recorded growth; the compound in question is `COc1ccc(Sc2[nH]c(C(C)=O)c3ccccc23)cc1`
Reply: 87.5

Task item: Indicate its recorded growth; the compound in question is `CCO/C=N/S(=O)(=O)c1cc2c(cc1Cl)NC=NS2(=O)=O`
Reply: 104

Task item: Indicate its recorded growth; the compound in question is `O=C(O)c1ccc(-n2cc(/C=N/Nc3ccc(Cl)cc3Cl)c(-c3ccccc3)n2)cc1`
Reply: 102

Measured values drawn from PubChem BioAssay (NCI) for this set.
